Taken from ChEMBL document CHEMBL1201862.

# System: DU-145
# EXPERIMENT: NCI tumour cell line growth inhibition, 48 h
Where a name gives a salt, the structure may show the parent alone. The source made the active and inactive calls. Cut-off read from the data, not from the text of the source: active = GI50 up to about 1.1 µM and inactive = higher.
Answer with one of the outcomes given here: active, inactive

Can you look up the reported call for `CN1B(c2ccccc2)N(C)C(=O)N(C)C1=O` for me? inactive

Can you look up the reported call for `COc1cccc(-c2c(-c3ccccc3)[nH]c(C)c2C(=O)ONC(=O)c2ccccc2)c1` for me? inactive

Can you look up the reported call for `Cc1ncc([N+](=O)[O-])n1CCNS(=O)(=O)CCCn1ccnc1[N+](=O)[O-]` for me? inactive

Can you look up the reported call for `CCOC(=O)c1csc(NC(=O)CCN2CCCC2)n1` for me? inactive

Can you look up the reported call for CN(C)CCCN1c2ccccc2Sc2ccc(C(F)(F)F)cc21 [TRIFLUPROMAZINE HYDROCHLORIDE] for me? inactive
